Field: switch fluorescence ratio. Provide a value for each of the sequences that follow.
- Test system: ATP;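 note: ATP exposure 15 min at 22 °C before imaging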
- test method notes: switch fluorescence ratio, 500 uM ATP over buffer (Cy3 cluster intensity, sum of 5 cycles each) (fold (ratio)); higher = stronger signal-on switching upon ATP binding; sequences stand for … in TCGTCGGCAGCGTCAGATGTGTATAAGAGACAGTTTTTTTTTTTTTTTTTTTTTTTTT…TC
- measurement setup: aptamer strand: ATP DNA aptamer (quencher-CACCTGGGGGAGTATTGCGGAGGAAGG + anchor), 100 nM annealed; ATP concentration: 500 uM
Give bare numbers.

| biosequence | switch fluorescence ratio |
| --- | --- |
| TTTTTACAGG | 1.13 |
| ATATTGGGGA | 1.01 |
| GACATCGGCA | 1.03 |

For every record below, what is its switch fluorescence ratio?
1. GCGTTTTTCG
2. TTCAAGGAGG
3. TTTTTTGGGG
4. GCCTGTGGGG

[reply]
1: 0.977; 2: 0.978; 3: 0.984; 4: 0.977

---

- Tested on: ATP;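 note: ATP exposure 15 min at 22 °C before imaging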
- test method notes: switch fluorescence ratio, 500 uM ATP over buffer (Cy3 cluster intensity, sum of 5 cycles each) (fold (ratio)); higher = stronger signal-on switching upon ATP binding; sequences stand for … in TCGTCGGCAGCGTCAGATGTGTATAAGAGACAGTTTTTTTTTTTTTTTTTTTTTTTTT…TC
- measurement setup: aptamer strand: ATP DNA aptamer (quencher-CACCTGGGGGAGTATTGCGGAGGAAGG + anchor), 100 nM annealed; ATP concentration: 500 uM
Task for the reader: assign each of the following sequences its reported switch fluorescence ratio.
Give bare numbers.

Examples with their reported switch fluorescence ratio follow.
| biosequence | switch fluorescence ratio |
| --- | --- |
| CGGATGGATC | 1.02 |
| ATTATGATTG | 0.98 |
| GGGGTTTGAG | 1 |
| TATTGACGGG | 0.996 |
| GGTTGAGGCG | 0.981 |
| ATGGGCCGGG | 0.996 |
| TCGGTCAAAT | 0.977 |
| TCAGGGTTTT | 1.01 |
| AGGGATCGTC | 0.987 |
| TATTGGGCCT | 1 |

// each sequence listed below needs its switch fluorescence ratio
1. AACATTATTT
2. CAAAAAAATG
3. AGCGGATTAA
4. ATGATTTTTC

[reply]
1. 1.02
2. 0.999
3. 1.02
4. 0.976

# return switch fluorescence ratio for each item in the list
1. AAGTGTCGTG
2. AATAGGGGTG
3. CAAGCAAGAT
4. TCGGTATGTG
5. ACGGTAACGT
6. CGGTGAGGGT

[reply]
[0.959, 1.01, 2.58, 1.03, 1.02, 0.986]

---

- Test system: ATP;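 note: ATP exposure 15 min at 22 °C before imaging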
- test method notes: switch fluorescence ratio, 500 uM ATP over buffer (Cy3 cluster intensity, sum of 5 cycles each) (fold (ratio)); higher = stronger signal-on switching upon ATP binding; sequences stand for … in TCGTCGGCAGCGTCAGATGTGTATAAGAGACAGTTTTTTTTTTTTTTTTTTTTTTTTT…TC
- measurement setup: aptamer strand: ATP DNA aptamer (quencher-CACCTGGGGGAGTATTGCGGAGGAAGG + anchor), 100 nM annealed; ATP concentration: 500 uM
measured metric: switch fluorescence ratio
Numbers only.

Answered cases to consult:
| biosequence | target or system | result number |
| --- | --- | --- |
| CCAGCTGGT | ATP | 1.02 |
| TTGATCGGGG | ATP | 1.01 |

List the reported switch fluorescence ratio of each sequence below.
1. CAGCGGGACC
2. GGATTTATAA
3. TGTGTTGCCT
4. TTGCGTACGG
5. AGGTTGTCGT
6. GCGGGCTGGA
7. TAAAGTATAT

[reply]
1.03
0.996
1.05
1.01
0.997
1.01
0.998

---

- Test system: ATP;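 note: ATP exposure 15 min at 22 °C before imaging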
- test method notes: switch fluorescence ratio, 500 uM ATP over buffer (Cy3 cluster intensity, sum of 5 cycles each) (fold (ratio)); higher = stronger signal-on switching upon ATP binding; sequences stand for … in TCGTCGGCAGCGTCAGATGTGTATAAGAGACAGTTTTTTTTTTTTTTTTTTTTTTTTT…TC
- measurement setup: aptamer strand: ATP DNA aptamer (quencher-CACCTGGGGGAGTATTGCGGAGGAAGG + anchor), 100 nM annealed; ATP concentration: 500 uM
Could you please report measured switch fluorescence ratio for the items listed next?
Give bare numbers.

Known results for sequences:
| biosequence | target or system | switch fluorescence ratio |
| --- | --- | --- |
| TATATGCGTG | ATP | 0.993 |
| GGGGGGAGAT | ATP | 1.04 |

Give me switch fluorescence ratio for each of these sequences, listed below.
1. ACTATGGTTA
2. GGGATGCTCT
3. TTGGGAGGGC

[reply]
1. 0.997
2. 1.01
3. 1.18

Items follow; give switch fluorescence ratio for each.
1. GGGAGTGGCC
2. ATCTTAATG
3. TTCAAAACGT
4. GATTCTTGAA
5. AAAGGGGACA
6. TGCCTTAAGT
7. GAATGTCTGC

[reply]
1: 1.01; 2: 1.01; 3: 1.04; 4: 1.01; 5: 1.02; 6: 1.01; 7: 0.99

Batch request: switch fluorescence ratio for each of the following sequences.
1. ATTGTTAATT
2. TGTTTGGTGG
3. TTCTGTATGT
4. GGGACGGCTC
5. TGTGTATTCC
6. TTTGGTTATT

[reply]
1: 1.01; 2: 0.968; 3: 0.97; 4: 0.993; 5: 1.05; 6: 1

# map each sequence to its switch fluorescence ratio
1. GCCTTGATAG
2. GACTTTGTTC

[reply]
1. 0.981
2. 0.983

[ask] Which switch fluorescence ratio is listed for GGGTTGGGAA ?
[reply] 0.988

---

- Tested on: ATP;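 note: ATP exposure 15 min at 22 °C before imaging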
- test method notes: switch fluorescence ratio, 500 uM ATP over buffer (Cy3 cluster intensity, sum of 5 cycles each) (fold (ratio)); higher = stronger signal-on switching upon ATP binding; sequences stand for … in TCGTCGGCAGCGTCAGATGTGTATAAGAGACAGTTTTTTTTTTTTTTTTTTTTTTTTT…TC
- measurement setup: aptamer strand: ATP DNA aptamer (quencher-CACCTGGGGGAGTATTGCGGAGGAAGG + anchor), 100 nM annealed; ATP concentration: 500 uM
Please note: Y applies when switch fluorescence ratio is 1 or greater, and N applies otherwise.

| biosequence | class |
| --- | --- |
| CTGTGGGTAG | Y |
| GGCAGCAAGG | Y |
| CATGGTTGGT | N |
| TTGTAGCTTT | Y |

[ask] Could you tell me if the measured switch fluorescence ratio of CTGTAATGGT reaches 1 or more?
[reply] Y

[ask] Does the sequence TGATTGTAAT have recorded switch fluorescence ratio that is 1 or more?
[reply] N

---

- Test system: ATP;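 note: ATP exposure 15 min at 22 °C before imaging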
- test method notes: switch fluorescence ratio, 500 uM ATP over buffer (Cy3 cluster intensity, sum of 5 cycles each) (fold (ratio)); higher = stronger signal-on switching upon ATP binding; sequences stand for … in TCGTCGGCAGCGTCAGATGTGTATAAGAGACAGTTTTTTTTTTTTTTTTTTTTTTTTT…TC
- measurement setup: aptamer strand: ATP DNA aptamer (quencher-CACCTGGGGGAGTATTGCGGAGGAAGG + anchor), 100 nM annealed; ATP concentration: 500 uM
measured metric: switch fluorescence ratio
One number for each entry.

These recorded examples may help you get a feel for the data.
| biosequence | target or system | result number |
| --- | --- | --- |
| AACGTAGTCG | ATP | 1.03 |
| ATCACATTGG | ATP | 1.02 |
| ACGGAGGATA | ATP | 1.11 |
| TGATTCTCGT | ATP | 1.02 |

Batch: switch fluorescence ratio for all items listed.
1. ATGTAATAGG
2. TTTATCGTGG
3. TTATTGTAAG

[reply]
0.995
0.972
0.968

// batch mode: one switch fluorescence ratio value per listed entry
1. AGATATGTGT
2. CCTAGGGGGT
3. CAGTAGTTGC
4. AAGGAGCTTG
5. AAAGTGGGAG
6. CGCTGTGACT
7. TTGGTAGTGC
8. TTATGAGCAA

[reply]
[0.998, 1.02, 1.09, 0.973, 0.971, 1.02, 0.973, 1.8]

---

- System: ATP;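 note: ATP exposure 15 min at 22 °C before imaging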
- test method notes: switch fluorescence ratio, 500 uM ATP over buffer (Cy3 cluster intensity, sum of 5 cycles each) (fold (ratio)); higher = stronger signal-on switching upon ATP binding; sequences stand for … in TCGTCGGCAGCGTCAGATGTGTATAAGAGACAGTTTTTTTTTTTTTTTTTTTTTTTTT…TC
- measurement setup: aptamer strand: ATP DNA aptamer (quencher-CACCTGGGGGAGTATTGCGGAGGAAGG + anchor), 100 nM annealed; ATP concentration: 500 uM
measured metric: switch fluorescence ratio
One number for each entry.

| biosequence | target or system | switch fluorescence ratio |
| --- | --- | --- |
| ATGCACGTGG | ATP | 1.01 |

Lab note: each sequence below needs its switch fluorescence ratio filled in.
1. TAAGGCTGTG
2. ATTGGTTTTT
3. TAAGTAAGGG
4. ATGTTAAGTC
5. TCCTAAGGGC
6. GTGGAACCTT
7. TTGGGCAGCA
8. CCTGGGGATT

[reply]
1: 1; 2: 1.07; 3: 1; 4: 0.97; 5: 1.04; 6: 1.24; 7: 0.994; 8: 1.07

Look at each sequence and report its switch fluorescence ratio.
1. TTCAGAAACA
2. GAGAGAGGGA
3. TAAATGTGGA

[reply]
1.04
1.01
0.972

Give one value of switch fluorescence ratio per listed sequence.
1. TGAATGATC
2. TTTGGGCGAA
3. GGGTCAAAGT
4. CCGGGGGCAG
5. AGAGGTGTGG
6. GCTTGTTGGG
7. GTGTACGGGT

[reply]
1. 1
2. 1
3. 1.01
4. 1.1
5. 0.991
6. 1.02
7. 0.991

Report switch fluorescence ratio for each item below.
1. AGTGTACCGG
2. CCGGGATTTT

[reply]
1. 0.997
2. 1.09
